Each entry below carries its recorded ratio of KD at pH 5.8/pH 7.4.
Molecular target: T1, Human latent myostatin (human, UniProt O14793 25-266; O14793 267-375)
T1 construct: also called human myostatin latent form
T1 sequence 1: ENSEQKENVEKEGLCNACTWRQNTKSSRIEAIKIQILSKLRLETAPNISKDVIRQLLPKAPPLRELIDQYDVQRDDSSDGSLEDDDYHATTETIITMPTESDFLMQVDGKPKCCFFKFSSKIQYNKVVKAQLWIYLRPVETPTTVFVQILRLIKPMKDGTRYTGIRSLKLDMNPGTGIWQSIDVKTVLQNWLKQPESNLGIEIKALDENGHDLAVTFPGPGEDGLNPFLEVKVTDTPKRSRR
T1 sequence 2: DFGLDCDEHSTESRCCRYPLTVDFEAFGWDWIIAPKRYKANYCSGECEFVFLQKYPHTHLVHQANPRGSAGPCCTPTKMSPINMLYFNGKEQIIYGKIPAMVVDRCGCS
Experiment: SPR 37C; KD pH 5.8 / KD pH 7.4
Please give the numeric answer without any surrounding text.

Examples from the recorded data:
| Binder | ratio of KD at pH 5.8/pH 7.4 |
| --- | --- |
| MS_M103245H1233-SG1/M103202L1045-SK1 (antibody, human IgG1, kappa, V domains shown, also called MS1032LO23-SG1) VH: QVTLKESGPVLVKPTETLTLTCKVSGIDLSHEDISWVRQAPGKGLEWVSIISYAGSTYYASWAKGRLTISKDTSKNQVVLTMTNMDPVDTATYYCARGVPAYSHGGDLWGQGTLVTVSS VL: DIVMTQSPATLSLSPGERATLSCTTSQSVYHENWLSWFQQKPGQPPKLLIYWASTLAYGVPSRFSGSGSGTDFTLTISSLQPEDAATYYCAGGYGGGRYAFGQGTKVEIKR | 62 |
| MS_M103205H1046-SG1/M103202L889-SK1 (antibody, human IgG1, kappa, V domains shown, also called MS1032LO10-SG1) VH: QVTLKESGPVLVKPTETLTLTCTVSGIDLSHTDISWVRQAPGKGLEWVGIISYAGKTYYASWAKKRLTISKDTSKNQVVLTMTNMDPVDTATYYCARGVPAYSHGGDLWGQGTLVTVSS VL: DIVMTQSPATLSLSPGERATLSCTSSQSVYHANWLSWFQQKPGQPPKLLIYWASTLAYGVPSRFSGSGSGTDFTLTISSLQPEDAATYYCAGGYGGGRYAFGQGTKVEIKR | 125 |

Exercise: Quick one: ratio of KD at pH 5.8/pH 7.4 for MS_M103245H795-SG1/M103202L1045-SK1 (antibody, human IgG1, kappa, V domains shown, also called MS1032LO21-SG1) VH: QVTLKESGPVLVKPTETLTLTCKVSGIDLSHDDISWVRQAPGKGLEWVSIISYAGSTYYASWAKGRLTISKDTSKNQVVLTMTNMDPVDTATYYCARGVPAYSHGGDLWGQGTLVTVSS VL: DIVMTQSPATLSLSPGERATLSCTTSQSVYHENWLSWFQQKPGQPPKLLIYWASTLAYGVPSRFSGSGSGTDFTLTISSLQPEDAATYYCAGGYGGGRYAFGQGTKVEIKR ?
Key: 204

Exercise: Same again, this time with MS_M103205H1047-SG1/M103202L889-SK1 (antibody, human IgG1, kappa, V domains shown, also called MS1032LO11-SG1) VH: QVTLKESGPVLVKPTETLTLTCTVSGIDLSHTDISWVRQAPGKGLEWVGIISYAGKKYYASWAKGRLTISKDTSKNQVVLTMTNMDPVDTATYYCARGVPAYSHGGDLWGQGTLVTVSS VL: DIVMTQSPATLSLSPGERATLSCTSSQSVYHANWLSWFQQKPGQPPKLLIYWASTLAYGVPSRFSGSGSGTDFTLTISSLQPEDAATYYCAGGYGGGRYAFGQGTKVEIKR
Key: 341
